molecular target: TrkB G623R (Homo sapiens, UniProt Q16620, G623R); experiment: Trk enzyme assay ([33P] incorporation into poly-EAY); type: biochemical; settings: mutant TrkB G623R enzyme; 22° C., 60 minutes
Sequence (Q16620 32-822 G623R): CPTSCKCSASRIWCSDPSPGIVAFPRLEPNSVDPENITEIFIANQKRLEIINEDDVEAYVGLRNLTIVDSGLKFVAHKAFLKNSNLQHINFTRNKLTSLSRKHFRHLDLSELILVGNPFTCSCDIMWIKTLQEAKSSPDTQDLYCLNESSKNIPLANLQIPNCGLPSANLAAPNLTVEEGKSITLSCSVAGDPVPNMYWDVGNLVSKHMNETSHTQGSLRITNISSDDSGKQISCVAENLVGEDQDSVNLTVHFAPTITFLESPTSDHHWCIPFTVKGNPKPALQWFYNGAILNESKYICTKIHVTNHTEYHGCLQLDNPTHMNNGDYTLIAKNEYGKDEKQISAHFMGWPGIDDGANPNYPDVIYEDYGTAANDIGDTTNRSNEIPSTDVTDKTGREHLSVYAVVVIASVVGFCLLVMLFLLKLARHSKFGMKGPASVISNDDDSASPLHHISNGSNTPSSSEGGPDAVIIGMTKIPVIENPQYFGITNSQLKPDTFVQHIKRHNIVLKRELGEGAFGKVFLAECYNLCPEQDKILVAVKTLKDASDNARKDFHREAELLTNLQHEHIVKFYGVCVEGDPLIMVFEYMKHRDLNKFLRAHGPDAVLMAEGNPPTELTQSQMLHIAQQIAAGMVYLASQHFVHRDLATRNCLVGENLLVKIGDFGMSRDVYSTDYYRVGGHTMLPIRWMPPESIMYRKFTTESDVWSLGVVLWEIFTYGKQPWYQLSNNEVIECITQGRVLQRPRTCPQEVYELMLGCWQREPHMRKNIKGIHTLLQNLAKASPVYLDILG
Here, each record is paired with measured log10 IC50 data.
Remember, log10 of IC50, in nM.

Solved entries (count: 7):
{"columns": ["Compound", "Endpoint Result"],
 "data": [
  ["O=C1OCCOc2ncc(F)cc2[C@H]2CCCN2c2ccn3ncc1c3n2 [Compound 22]", 0.11],
  ["O=C1NC[C@H](O)COc2ccc(F)cc2[C@H]2CC(F)(F)CN2c2ccn3ncc1c3n2 [Compound 26]", 0.26],
  ["O=C1NCCCOc2cccc(n2)[C@H]2CCCN2c2ccn3ncc1c3n2 [Compound 20]", 0.49],
  ["CC1(C)CNC(=O)c2cnn3ccc(nc23)N2CCC[C@@H]2c2cc(F)cnc2OC1 [Compound 25]", 0.36],
  ["O=C1NCCCOc2ccc(F)cc2[C@H]2CCCN2c2ccn3ncc1c3n2 [Compound 19]", 0.00],
  ["O=C1NC[C@@H](O)COc2ncc(F)cc2[C@H]2CCCN2c2ccn3ncc1c3n2 [Compound 17]", 0.04],
  ["CC1(O)CN(C(=O)Nc2cnn3ccc(N4CCC[C@@H]4c4cc(F)ccc4Cl)nc23)C1 [Compound 10]", 2.18]
]}

Then this compound:
Per the records, this compound ( CC1(O)CN(C(=O)Nc2cnc3ccc(N4CCC[C@@H]4c4cc(F)ccc4F)nn23)C1 [Compound 7] ) has log10 IC50 equal to 1.68
